B1: mRNA-splicing (parent)
chain: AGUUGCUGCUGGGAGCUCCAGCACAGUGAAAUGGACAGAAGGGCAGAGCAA

variants of: B1; experiment: exon inclusion enrichment index; higher = more inclusion; WT1 exon 5 minigene, HEK293
If the reported exon inclusion enrichment index equals or exceeds 0.9, assign 1. If not, assign -1.

Solved cases below.
variant.id: U3A U4G G5A C6G U7G C9A
discrete.label: -1

variant.id: G5A C6G U7G C9A A14G G15A
discrete.label: -1

variant.id: G5A U7C G8A U10C G43C
discrete.label: 1

variant.id: G5A C6G U7G C9A A25C
discrete.label: -1

variant.id: G5C C6U G8C C9U U10C A40G G41C
discrete.label: 1

variant.id: G5C C6U G8C C9U U10C A40G G41U
discrete.label: 1

variant.id: G5C C6G U7C U10C G12A G13C
discrete.label: 1

variant.id: G5U G8U C9U U32C G33C
discrete.label: -1

variant.id: C6A U7C C9A U10C C44A A45G
discrete.label: 1

variant.id: G5C C6G U7C U10C C18G C19G
discrete.label: 1

## Task # check: exon inclusion enrichment index of G5A U7C G8A U10C G34U A35C is greater than or equal to 0.9
## Result -1

## Task # check: exon inclusion enrichment index of G5A C6U U7A G8U C9A A29U A30C is greater than or equal to 0.9
## Result -1

## Task # check: exon inclusion enrichment index of G5C C6A U7C G8A U10A A40C is greater than or equal to 0.9
## Result -1

## Task # check: exon inclusion enrichment index of C6A U7A C9A U10A A37C G38U is greater than or equal to 0.9
## Result -1

## Task # check: exon inclusion enrichment index of G5A C6G U7G C9A A35G C36U is greater than or equal to 0.9
## Result -1

Values compiled from the RNAGym collection of RNA variant scans (doi:10.1101/gr.219683.116).
